- Target system: UniProt:P06213
- Sequence (P06213 whole entry, looked up): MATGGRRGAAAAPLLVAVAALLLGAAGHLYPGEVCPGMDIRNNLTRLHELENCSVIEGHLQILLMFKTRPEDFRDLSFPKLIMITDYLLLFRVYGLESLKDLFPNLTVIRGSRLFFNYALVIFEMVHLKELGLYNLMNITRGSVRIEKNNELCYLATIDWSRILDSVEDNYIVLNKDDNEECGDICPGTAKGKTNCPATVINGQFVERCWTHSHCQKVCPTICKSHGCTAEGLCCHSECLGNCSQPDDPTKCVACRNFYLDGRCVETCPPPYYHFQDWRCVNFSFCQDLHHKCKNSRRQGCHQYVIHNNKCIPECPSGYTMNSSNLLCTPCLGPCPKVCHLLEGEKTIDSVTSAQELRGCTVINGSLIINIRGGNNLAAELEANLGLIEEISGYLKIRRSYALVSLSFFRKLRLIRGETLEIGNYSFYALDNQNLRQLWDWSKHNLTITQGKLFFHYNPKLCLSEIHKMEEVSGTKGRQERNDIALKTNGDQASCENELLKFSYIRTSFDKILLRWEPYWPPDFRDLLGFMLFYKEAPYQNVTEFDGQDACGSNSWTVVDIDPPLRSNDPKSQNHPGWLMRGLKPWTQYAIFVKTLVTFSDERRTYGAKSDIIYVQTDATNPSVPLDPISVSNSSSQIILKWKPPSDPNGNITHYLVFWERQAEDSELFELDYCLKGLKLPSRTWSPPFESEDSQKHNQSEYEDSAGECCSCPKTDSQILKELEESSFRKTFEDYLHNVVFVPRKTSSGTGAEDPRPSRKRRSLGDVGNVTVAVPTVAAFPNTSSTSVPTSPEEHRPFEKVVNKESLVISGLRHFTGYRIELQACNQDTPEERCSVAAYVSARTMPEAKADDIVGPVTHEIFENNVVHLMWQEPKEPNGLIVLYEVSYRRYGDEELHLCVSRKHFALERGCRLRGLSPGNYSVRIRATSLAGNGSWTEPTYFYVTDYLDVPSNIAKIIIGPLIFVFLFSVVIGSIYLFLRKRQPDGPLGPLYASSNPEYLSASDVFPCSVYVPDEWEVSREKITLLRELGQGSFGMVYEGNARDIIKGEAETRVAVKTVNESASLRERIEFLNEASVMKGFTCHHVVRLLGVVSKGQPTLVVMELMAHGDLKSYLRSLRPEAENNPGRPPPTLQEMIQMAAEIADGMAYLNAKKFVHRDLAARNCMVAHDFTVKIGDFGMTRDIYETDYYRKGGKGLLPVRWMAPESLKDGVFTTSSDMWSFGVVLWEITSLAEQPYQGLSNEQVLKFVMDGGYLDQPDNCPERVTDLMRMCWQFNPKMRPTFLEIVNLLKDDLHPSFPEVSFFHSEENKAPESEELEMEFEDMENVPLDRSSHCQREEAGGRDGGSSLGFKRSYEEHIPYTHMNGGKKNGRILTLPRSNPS
- Protocol summary: KINOMEscan competition binding
- Assay setup: compound 10.0 µM
Field: label. Allowed values: 1 (kinase still bound, per cent of control < 60%) or -1 (kinase still bound, per cent of control >= 60%).

Known results for molecules:
stdin: hey, is kinase still bound, per cent of control for OCCCNc1cc(-c2ccnc(Nc3cccc(Cl)c3)n2)ccn1 lower than 60% or not?
stdout: -1

stdin: Queued: CN(C)C/C=C/C(=O)Nc1cccc(Nc2ncc3c(n2)N(C)c2ccccc2C(=O)N3C)c1
stdout: -1

stdin: For COc1cc(N2CCN(C)CC2)ccc1Nc1nc(N)c(C(=O)c2c(Cl)cccc2Cl)s1 then?
stdout: -1

Further cases:
stdin: Is 60% strictly greater than the molecule's reported kinase still bound, per cent of control? molecule: CCOc1cc2ncc(C#N)c(Nc3ccc(OCc4ccccn4)c(Cl)c3)c2cc1NC(=O)/C=C/CN(C)C
stdout: 1

stdin: Cc1ccc(C(=O)Nc2cccc(C(F)(F)F)c2)cc1Nc1cncc(C(N)=O)c1 , same question.
stdout: -1

stdin: What would you report for O=C1Nc2ccc(I)cc2/C1=C/c1cc(Br)c(O)c(Br)c1 ?
stdout: -1

stdin: Same question for CCC(=O)N1CCN(c2ccc(-n3c(=O)ccc4cnc5ccc(-c6cnc7ccccc7c6)cc5c43)cc2C(F)(F)F)CC1 please.
stdout: 1

stdin: Same question, CCN1CCN(Cc2ccc(Nc3ncc4c(n3)N(C)c3ccccc3C(=O)N4C)cc2C(F)(F)F)CC1 this time
stdout: -1

###

- Target system: PLK2 (human) (UniProt Q9NYY3)
- Sequence (Q9NYY3 whole entry, looked up): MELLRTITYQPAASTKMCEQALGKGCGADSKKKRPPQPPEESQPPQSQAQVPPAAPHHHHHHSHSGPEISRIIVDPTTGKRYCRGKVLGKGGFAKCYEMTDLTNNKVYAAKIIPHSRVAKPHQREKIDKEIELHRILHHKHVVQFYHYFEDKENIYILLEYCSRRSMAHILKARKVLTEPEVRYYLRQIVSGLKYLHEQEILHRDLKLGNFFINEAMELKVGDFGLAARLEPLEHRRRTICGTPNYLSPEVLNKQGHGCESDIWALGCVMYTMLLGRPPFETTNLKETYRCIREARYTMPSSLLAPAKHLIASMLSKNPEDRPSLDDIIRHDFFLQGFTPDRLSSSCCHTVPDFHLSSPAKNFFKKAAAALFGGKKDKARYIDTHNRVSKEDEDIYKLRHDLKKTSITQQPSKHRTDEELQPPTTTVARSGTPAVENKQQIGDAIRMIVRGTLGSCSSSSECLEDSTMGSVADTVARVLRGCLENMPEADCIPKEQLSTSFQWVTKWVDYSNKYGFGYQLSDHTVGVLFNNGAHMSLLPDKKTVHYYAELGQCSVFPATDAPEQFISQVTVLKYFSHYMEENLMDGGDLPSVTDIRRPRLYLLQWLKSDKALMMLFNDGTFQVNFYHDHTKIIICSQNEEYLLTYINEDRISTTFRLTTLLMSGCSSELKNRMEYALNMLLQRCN
- Protocol summary: KINOMEscan competition binding
- Assay setup: compound 10.0 µM
Measurement name: kinase still bound, per cent of control

stdin: Value wanted: kinase still bound, per cent of control (PLK2 (human) (UniProt Q9NYY3)) of entry O=C(O)c1ccc(Nc2ncc3c(n2)-c2ccc(Cl)cc2C(c2c(F)cccc2F)=NC3)cc1
stdout: 29%

Consider the following items and state reported kinase still bound, per cent of control for each.
1. Nc1ccc(-c2ccc3ncc4ccc(=O)n(-c5cccc(C(F)(F)F)c5)c4c3c2)cn1
2. CCOc1cc2ncc(C#N)c(Nc3ccc(OCc4ccccn4)c(Cl)c3)c2cc1NC(=O)/C=C/CN(C)C

stdout:
100%
85%

Field: kinase still bound, per cent of control. Fill in for each record below.
1. COc1cc(N2CCN(C)CC2)ccc1Nc1nc(N)c(C(=O)c2c(Cl)cccc2Cl)s1
2. Cc1ccc(NC(=O)c2cccc(C(C)(C)C#N)c2)cc1Nc1ccc2ncn(C)c(=O)c2c1
3. C[C@@H](Oc1cc(-n2cnc3ccc(CN4CCN(C)CC4)cc32)sc1C(N)=O)c1ccccc1C(F)(F)F
4. Cc1cc([C@@H](C)Nc2ccccc2C(=O)O)c2nc(N3CCOCC3)cc(=O)n2c1
5. O=C(NOC[C@H](O)CO)c1ccc(F)c(F)c1Nc1ccc(I)cc1F

stdout:
1: 91%; 2: 99%; 3: 2.6%; 4: 99%; 5: 100%

###

I'd be grateful if you could share measured kinase still bound, per cent of control for these entries.
- Tested on: FLT3 (human), P36888 [N841I]
- Protocol summary: KINOMEscan competition binding
- Assay setup: compound 10.0 µM
Numbers only, in %.

stdin: // fetch FLT3 (human), P36888 [N841I] kinase still bound, per cent of control for CCN(CC)CCCCNc1ncc2cc(-c3cc(OC)cc(OC)c3)c(NC(=O)NC(C)(C)C)nc2n1
stdout: 100

Please look at the items below and tell me kinase still bound, per cent of control for each one, in order.
1. O=C1Nc2ccc(I)cc2/C1=C/c1cc(Br)c(O)c(Br)c1
2. CNC(=O)c1ccc(Nc2cc(Nc3ccccc3S(=O)(=O)C(C)C)c3cc[nH]c3n2)nc1
3. N#CCNC(=O)c1ccc(-c2ccnc(Nc3ccc(N4CCOCC4)cc3)n2)cc1
4. COc1cc(N2CCN(C)CC2)ccc1Nc1nc(N)c(C(=O)c2c(Cl)cccc2Cl)s1
5. Nc1ccc(-c2ccc3ncc4ccc(=O)n(-c5cccc(C(F)(F)F)c5)c4c3c2)cn1

stdout:
1. 12
2. 0.35
3. 2.2
4. 47
5. 11

Report kinase still bound, per cent of control for every entry below.
1. CCN(CC)CCCCNc1ncc2c(n1)N(C)C(=O)N(c1c(Cl)c(OC)cc(OC)c1Cl)C2
2. Cc1cn(-c2cc(C(=O)Nc3ccc(C)c(NC(=O)c4ccno4)c3)cc(C(F)(F)F)c2)cn1
3. C[C@@H](Oc1cc(-c2cnn(C3CCNCC3)c2)cnc1N)c1c(Cl)ccc(F)c1Cl

stdout:
[100, 100, 2]
